testProtocol: Blood clearance in Beagle dog at 0.1 to 0.5 mg/kg administered as iv infusion measured up to 24 hrs by HPLC-MS-MS analysis
Format: ADME, organism-based, Canis lupus familiaris
assayEndpoint: clearance (mL/min/kg)
One number for each entry, in mL/min/kg.

smilesText | unitAbbrev | clearance
COc1cc(C(=O)N2CC(F)C2)ccc1Nc1nc2ccc(-c3ccc(NC(=O)[C@H](C)c4ccc(F)cc4)cc3)cn2n1 | mL/min/kg | 9.83

I would be grateful if you could provide clearance for each of the following entries.
1. COc1cc(S(C)(=O)=O)ccc1Nc1nc2ccc(-c3ccc(NC(=O)[C@H](C)c4ccc(F)cc4)cc3)cn2n1
2. C=C(c1ccc(OC)c(F)c1)c1cc(NCCC(F)(F)F)c2ncc(-c3ccc(C(=O)NC4CC4)c(C)c3)n2n1
3. Cc1cc(-c2cnc3c(NCCC(F)(F)F)cc(C4(c5cc(F)ccc5O)CC4)nn23)ccc1C(=O)NC1CC1

output:
23.3
56.7
21.7

----------
testProtocol: Volume of distribution at steady state in Beagle dog at 0.1 to 0.5 mg/kg administered as iv infusion measured up to 24 hrs by HPLC-MS-MS analysis
Type: ADME, organism-based, Canis lupus familiaris
conditionDetails: in vivo, read-out: Vdss
Classification field: MET = Vd at or over 4 L/kg; NOT MET = Vd under 4 L/kg.

compound | label
COc1cc(S(C)(=O)=O)ccc1Nc1nc2ccc(-c3ccc(NC(=O)[C@H](C)c4ccc(F)cc4)cc3)cn2n1 [BAY-1161909] | MET
C=C(c1ccc(OC)c(F)c1)c1cc(NCCC(F)(F)F)c2ncc(-c3ccc(C(=O)NC4CC4)c(C)c3)n2n1 | NOT MET

input: Reported Vd reaches at least 4 L/kg for `Cc1cc(-c2cnc3c(NCCC(F)(F)F)cc(C4(c5cc(F)ccc5O)CC4)nn23)ccc1C(=O)NC1CC1` ?
output: NOT MET

input: Reported Vd reaches at least 4 L/kg for `COc1cc(C(=O)N2CC(F)C2)ccc1Nc1nc2ccc(-c3ccc(NC(=O)[C@H](C)c4ccc(F)cc4)cc3)cn2n1` ?
output: MET

----------
testProtocol: Half life in Wistar rat at 0.1 to 0.5 mg/kg, iv administered as bolus dose measured up to 24 hrs by HPLC-MS-MS analysis
Type: ADME, organism-based
conditionDetails: Wistar, in vivo
Lab note - cut at 5 h for half-life: Fulfilled if strictly below, Not fulfilled if not.

smilesText | label
COc1ccc(Oc2cc(NCCC(F)(F)F)c3ncc(-c4ccc(C(=O)NC5CC5)c(C)c4)n3n2)c(F)c1F | Not fulfilled
COc1cc(C(=O)N2CC(F)C2)ccc1Nc1nc2ccc(-c3ccc(NC(=O)[C@H](C)c4ccc(F)cc4)cc3)cn2n1 | Not fulfilled
Cc1cc(-c2cnc3c(NCCC(F)(F)F)cc(C4(c5cc(F)ccc5O)CC4)nn23)ccc1C(=O)NC1CC1 | Fulfilled
C=C(c1ccc(OC)c(F)c1)c1cc(NCCC(F)(F)F)c2ncc(-c3ccc(C(=O)NC4CC4)c(C)c3)n2n1 | Fulfilled

input: Please indicate whether the reported half-life of `COc1cc(S(C)(=O)=O)ccc1Nc1nc2ccc(-c3ccc(NC(=O)[C@H](C)c4ccc(F)cc4)cc3)cn2n1` is strictly below 5 h.
output: Not fulfilled
